Values were extracted from the supplement of paper PMC6555819.

- Tested on: RXRa homodimer (NR concentration 180 nM)
- EXPERIMENT: PBM binding z-score (relative to random genomic background probes); higher = stronger binding; sequences stand for … in GC…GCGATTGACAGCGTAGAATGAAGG
The label depends only on PBM binding z-score: true if it is at least 0.4, false if it is smaller.

{"columns": ["CONSTRUCT_SEQUENCE", "QUALITATIVE_LABEL"],
 "data": [
  ["AGAATTAGGTTATACGTAGATCAGGGAAGAAAGT", "true"],
  ["TCTCGGAGGACACGAAGGTCAGAGATTTCCAGAG", "true"],
  ["CCTGCTAAGTCAATGGTCAGCTAAAGCAGCTCGC", "false"],
  ["CTACTAAGGTGAACAAGGTCGTTGATTACTATTC", "true"],
  ["ATCTCTAGGTAAGACTCAGTTCAGTGACGAACGC", "false"],
  ["ACTATTTGTTGAGACGAGGGCAACCGATAGGTTG", "true"]
]}

----------
- System: RARa homodimer (NR concentration 270 nM)
- EXPERIMENT: PBM binding z-score (relative to random genomic background probes); higher = stronger binding; sequences stand for … in GC…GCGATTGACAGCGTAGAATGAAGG
Each entry below carries its reported PBM binding z-score.
ASSAY_ENDPOINT: PBM binding z-score

{"columns": ["CONSTRUCT_SEQUENCE", "ASSAY_RESULT"],
 "data": [
  ["ATCTCTAGATAACCAAGTTCAGTGAATGCCGAAC", 0.885],
  ["ATCTCTACGTAAAAGTTCAGTGAATCCCGAGGAT", 1.16],
  ["CCCACTGGGCCACGAAAGGTCATTGATTCAGTGA", 1.31],
  ["CCTTACGGGTCACGAGGTTATAGTACGACGAGCG", 1.16],
  ["ATCTCTAGGTAAGACTCAGCTCAGTGAAGAACGC", 0.868],
  ["TAGCCTAGGTCATTCATGGGCCAGTATAGAAAGC", -0.242],
  ["TAGCCTAGGTCATGGCCCAGTATACCACGCGAAC", 0.397],
  ["ACTAGTTGGTCAGCTGAGCTCACACACAATTCGG", -0.333],
  ["TAGCCTAGGTCAGATCGGTCCAGTATACGCTATA", -0.74],
  ["ATCGAAAGGTCGAGGGTGAGTATACCCACCCGAA", 0.53],
  ["ACTATTAGTTGAGACGAGGGCAACCGCTAGGTTG", 0.0804],
  ["TCATATAGGTAAACAGGGGAAAGTCCGTAAGTTA", 0.805],
  ["TATACAGGGTCACAGGCCAGAGTACGAATGTCGA", 1.31],
  ["ATCGAAACGTCGAGGTGAGTATAGAGAAAGGGAA", -0.11],
  ["TCAGACAGGTGAAGCTAACTCAGGTACGCAGTCG", 0.225],
  ["GGAACGAGGGCAAGTTTATAGCAGAGTTTGATGG", -0.0736],
  ["TCATATAGGTAATACAGGTGAAAGTTGGCATCTA", 1.84],
  ["ATCGAAAGGTCGACGAGGTGAGTACACACCGTTT", 0.262],
  ["TAGCCTAGATCATGCGGGCCAGTATAGTGTCGGC", -0.691],
  ["CAAACTAGGTCGCCGGAAGGTCAAAGTCCGCATG", 0.693],
  ["ACACGGAGGACAAAGGTCAGAGCTACGCCAGTGA", 1.1],
  ["TCTTGTAGATCAAGCAGGTTATGAAAGCCTGAGT", -0.519],
  ["CTTCCAAGGTCAATGCTAGGTCAGTGAAAGCATT", 0.988],
  ["TCTAGTTGGTCAGAGGTCACACACTCGAAATGCG", 1.84],
  ["GCTTACGGGTCAAACGTTATAGCATGAATAGAAT", 0.0211],
  ["TCTCGGTGGACACGAAGGTCAGAGCTTTCCAGAG", -0.711]
]}
